As shown below, each of these compounds has a reported % Phosphatase Activity (compared to DMSO) PRL-2 value.
- Measured Target: recombinant PRL-2 (Homo sapiens, UniProt Q12974)
- Construct: 6xHis (N, cleaved yes); made in house; host or cells: E. coli One Shot BL21 Star
- Experimental Protocol: In vitro phosphatase assay (DiFMUP hydrolysis), PRL-2
- Format: biochemical
- Condition Info: FDA-approved drug screen; compared to DMSO
Where a name gives a salt, the structure may show the parent alone.
# number only, unit % dropped from output

These recorded examples may help you get a feel for the data.
{"columns": ["Compound", "Value Unit", "Measured"],
 "data": [
  ["O=[N+]([O-])C(Br)(CO)CO [Bronopol]", "%", 96],
  ["COC(=O)C1=C(C)NC(C)=C(C(=O)OCCN2CCN(C(c3ccccc3)c3ccccc3)CC2)C1c1cccc([N+](=O)[O-])c1 (centres unmarked) [Manidipine]", "%", 93],
  ["CN(C)C(=O)Oc1ccc[n+](C)c1 [Pyridostigmine Bromide]", "%", 109]
]}

Ask: Please look up its % Phosphatase Activity (compared to DMSO) PRL-2: CC(=O)Oc1cccc2c1C(=O)c1c(OC(C)=O)cc(C(=O)O)cc1C2=O [Diacerein]
Reply: 51

Ask: Please look up its % Phosphatase Activity (compared to DMSO) PRL-2: CC(=O)OCC(=O)NCCCOc1cccc(CN2CCCCC2)c1 [Roxatidine Acetate HCl]
Reply: 111

Ask: Please look up its % Phosphatase Activity (compared to DMSO) PRL-2: COc1cc2nccc(Oc3ccc(NC(=O)C4(C(=O)Nc5ccc(F)cc5)CC4)cc3)c2cc1OC.O=C(O)C[C@H](O)C(=O)O [Cabozantinib malate (XL184)]
Reply: 115

Ask: Please look up its % Phosphatase Activity (compared to DMSO) PRL-2: NC(=O)CN1CCCC1=O [Piracetam]
Reply: 96

Ask: Please look up its % Phosphatase Activity (compared to DMSO) PRL-2: C#C[C@]1(O)C=C[C@H]2[C@@H]3CCC4=CC(=O)CC[C@@H]4[C@H]3CC[C@@]21CC [Gestodene]
Reply: 102

###

- Measured Target: recombinant PRL-2 (Homo sapiens, UniProt Q12974)
- Construct: 6xHis (N, cleaved yes); made in house; host or cells: E. coli One Shot BL21 Star
- Sequence (Q12974 1-167): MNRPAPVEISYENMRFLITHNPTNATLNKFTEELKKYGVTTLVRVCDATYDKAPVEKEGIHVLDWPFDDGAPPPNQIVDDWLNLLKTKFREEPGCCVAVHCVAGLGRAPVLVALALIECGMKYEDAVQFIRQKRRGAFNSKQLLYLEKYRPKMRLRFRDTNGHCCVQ
- Experimental Protocol: In vitro phosphatase assay (DiFMUP hydrolysis), PRL-2;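 also: PRL-2 activity read as DiFMUP hydrolysis after 20 min at room temperature with drug, enzyme first pre-reduced at 4 °C for 20 min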
- Format: biochemical
- Condition Info: FDA-approved drug screen; compared to DMSO
Counter-ions that a name gives are not always drawn.
Endpoint Name: % Phosphatase Activity (compared to DMSO) PRL-2 (%)
# number only, unit % dropped from output

These recorded examples may help you get a feel for the data.
{"columns": ["Compound", "Value Unit", "Measured"],
 "data": [
  ["C=CCNC1=C2C[C@@H](C)C[C@H](OC)[C@H](O)[C@@H](C)/C=C(\\C)[C@H](OC(N)=O)[C@@H](OC)/C=C\\C=C(/C)C(=O)NC(=CC1=O)C2=O", "%", 83],
  ["NC(=O)c1cnccn1 [Pyrazinamide]", "%", 93],
  ["Cc1nc2n(c(=O)c1CCN1CCC(c3noc4cc(F)ccc34)CC1)CCCC2", "%", 94],
  ["CCCN1CCCC[C@H]1C(=O)Nc1c(C)cccc1C [Ropivacaine HCl]", "%", 110],
  ["Oc1ccc(Cl)c2cccnc12", "%", 100],
  ["CC(C)(C)C(=O)OCOP(=O)(COCCn1cnc2c(N)ncnc21)OCOC(=O)C(C)(C)C", "%", 88],
  ["COc1ccc2c(c1)c(CC(=O)O)c(C)n2C(=O)c1ccc(Cl)cc1", "%", 106],
  ["Cc1ccc(NC(=O)c2ccc(CN3CCN(C)CC3)cc2)cc1Nc1nc(-c2cccnc2)cs1", "%", 117],
  ["O=C(CCCN1CC=C(n2c(=O)[nH]c3ccccc32)CC1)c1ccc(F)cc1", "%", 106],
  ["Nc1c(CC(=O)O)cccc1C(=O)c1ccc(Br)cc1 [Bromfenac Sodium]", "%", 99]
]}

Ask: Please look up its % Phosphatase Activity (compared to DMSO) PRL-2: CCC(=O)OCC(=O)[C@@]1(OC(=O)CC)[C@@H](C)C[C@H]2[C@@H]3CCC4=CC(=O)C=C[C@]4(C)[C@@]3(Cl)[C@@H](O)C[C@@]21C [Beclomethasone dipropionate]
Reply: 91

Ask: Please look up its % Phosphatase Activity (compared to DMSO) PRL-2: CCN1CCC[C@H]1CNC(=O)c1cc(S(N)(=O)=O)ccc1OC [Levosulpiride]
Reply: 103

Ask: Please look up its % Phosphatase Activity (compared to DMSO) PRL-2: `Cc1c(-c2ccnn2C)cc(C(=O)NCc2ccc(S(C)(=O)=O)cn2)c(=O)n1-c1cccc(C(F)(F)F)c1`
Reply: 114

Ask: Please look up its % Phosphatase Activity (compared to DMSO) PRL-2: CCN(CC)CCNC(=O)c1ccc(N)cc1 [Procainamide HCl]
Reply: 127

Ask: Please look up its % Phosphatase Activity (compared to DMSO) PRL-2: OCc1cc(C(O)CNCCCCCCOCCCCc2ccccc2)ccc1O (stereo not shown) [Salmeterol Xinafoate]
Reply: 136
